Data credit: patent US20250100996A1

# test-system: IKZF3 (Aiolos) (Homo sapiens)
# Construct: Leu-Asp junction (codons ctcgac before the linker); mScarlet (behind P2A) (C, cleaved yes); expressed in transfected cells
# Sequence (Q9UKT9 whole entry, one chain of several): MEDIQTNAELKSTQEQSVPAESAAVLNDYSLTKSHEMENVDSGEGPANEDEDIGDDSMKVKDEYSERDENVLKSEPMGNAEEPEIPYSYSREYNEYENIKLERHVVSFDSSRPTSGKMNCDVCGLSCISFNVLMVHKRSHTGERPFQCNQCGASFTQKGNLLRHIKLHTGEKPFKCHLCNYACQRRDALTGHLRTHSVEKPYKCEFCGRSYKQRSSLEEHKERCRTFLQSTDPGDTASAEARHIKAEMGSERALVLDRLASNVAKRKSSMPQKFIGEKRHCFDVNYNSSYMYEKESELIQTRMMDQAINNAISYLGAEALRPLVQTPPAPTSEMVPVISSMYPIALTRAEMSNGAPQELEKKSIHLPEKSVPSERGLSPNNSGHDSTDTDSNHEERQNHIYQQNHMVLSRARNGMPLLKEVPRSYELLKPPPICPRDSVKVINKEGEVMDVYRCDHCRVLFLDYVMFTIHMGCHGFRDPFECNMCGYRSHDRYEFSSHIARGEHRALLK
# assay-remarks: IKZF3 reporter degradation assay (HEK 293T IKZF3-mNeonGreen reporter cell line)
# Format: cell-based
# details: HEK 293T IKZF3-mNeonGreen reporter, 24 hours incubation
measured-quantity: DC50

Take a look at these entries with their results.
[[record]]
molecule = "O=C1CCC(N2Cc3cc(OC4CCC[C@@H]4N4CC(c5ccncc5)C4)ccc3C2=O)C(=O)N1 (mixture of isomers) [Compound 206-B]"
measured_quantity = "DC50"
value_reported = "> 30 µM"

[[record]]
molecule = "CC1CC1C(=O)N1CCC(C2CN([C@H]3CCCC[C@@H]3Oc3ccc4c(c3)CN(C3CCC(=O)NC3=O)C4=O)C2)CC1 (stereo partly drawn)"
measured_quantity = "DC50"
value_reported = "8.07 µM"

[[record]]
molecule = "O=C1CCC(N2Cc3cc(O[C@@H]4CCCC[C@@H]4N4CC(c5ccc(C(F)(F)F)nc5)C4)ccc3C2=O)C(=O)N1 (mixture of isomers)"
measured_quantity = "DC50"
value_reported = "> 30 µM"


q: Entry O=C1CCC(N2Cc3cc(O[C@H]4CCCC[C@@H]4N4CC(c5ccc(C(F)(F)F)cn5)C4)ccc3C2=O)C(=O)N1 (mixture of isomers) [Compound 192-B] has what DC50?
a: > 30 µM

q: Entry N#CC1(C(=O)N2CCC(C3CN([C@H]4CCCC[C@@H]4Oc4ccc5c(c4)CN(C4CCC(=O)NC4=O)C5=O)C3)CC2)CCC1 (stereo partly drawn) has what DC50?
a: 0.014 µM

q: Entry O=C1CCC(N2Cc3cc(OC4CCCCC4N4CC(c5ncc(C6CC6)cn5)C4)ccc3C2=O)C(=O)N1 (stereo not drawn) has what DC50?
a: > 30 µM

* * *

# test-system: IKZF3 (Aiolos) (Homo sapiens)
# Construct: Leu-Asp junction (codons ctcgac before the linker); mScarlet (behind P2A) (C, cleaved yes); expressed in transfected cells
# assay-remarks: IKZF3 reporter degradation assay (HEK 293T IKZF3-mNeonGreen reporter cell line)
# Type: cell-based
# details: HEK 293T IKZF3-mNeonGreen reporter, 24 hours incubation
DC50 by entry:

Take a look at these entries with their results.
[[record]]
compound = "CC(=O)N1CCC(C2CN([C@H]3CCCC[C@@H]3Oc3ccc4c(c3)CN(C3CCC(=O)NC3=O)C4=O)C2)CC1 (stereo partly drawn) [Compound 12-A]"
test_system = "IKZF3 (Aiolos) (Homo sapiens)"
value_reported = "> 30 µM"

[[record]]
compound = "CC(C)(C)OC(=O)N1CCC(C2CN([C@H]3CCCC[C@@H]3Oc3ccc4c(c3)CN(C3CCC(=O)NC3=O)C4=O)C2)CC1 (stereo partly drawn) [Compound 26-A]"
test_system = "IKZF3 (Aiolos) (Homo sapiens)"
value_reported = "> 30 µM"


Consider now this further compound.
q: Entry O=C1CCC(N2Cc3cc(O[C@@H]4CCCC[C@H]4N4CC(c5ccc(C(F)(F)F)cn5)C4)ccc3C2=O)C(=O)N1 (single isomer, unassigned) [Compound 129-B] has what DC50?
a: > 30 µM

* * *

# test-system: IKZF2 (Helios) (Homo sapiens)
# Construct: Leu-Asp junction (codons ctcgac before the linker); mScarlet (behind P2A) (C, cleaved yes); expressed in transfected cells
# Sequence (Q9UKS7 whole entry): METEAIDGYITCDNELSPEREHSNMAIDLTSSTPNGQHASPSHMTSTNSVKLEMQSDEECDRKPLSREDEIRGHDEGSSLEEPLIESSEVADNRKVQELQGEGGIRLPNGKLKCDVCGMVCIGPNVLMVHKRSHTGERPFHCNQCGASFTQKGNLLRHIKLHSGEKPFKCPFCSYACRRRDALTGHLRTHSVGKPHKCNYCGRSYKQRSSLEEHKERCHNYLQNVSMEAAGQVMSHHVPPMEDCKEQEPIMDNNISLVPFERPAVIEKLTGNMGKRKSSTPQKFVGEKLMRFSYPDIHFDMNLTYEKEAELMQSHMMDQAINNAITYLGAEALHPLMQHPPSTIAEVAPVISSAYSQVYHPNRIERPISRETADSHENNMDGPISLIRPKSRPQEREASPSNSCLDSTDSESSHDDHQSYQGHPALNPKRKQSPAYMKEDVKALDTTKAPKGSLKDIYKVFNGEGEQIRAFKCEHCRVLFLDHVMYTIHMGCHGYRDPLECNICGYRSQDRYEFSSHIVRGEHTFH
# Sequence (Q96SW2 whole entry, further chain): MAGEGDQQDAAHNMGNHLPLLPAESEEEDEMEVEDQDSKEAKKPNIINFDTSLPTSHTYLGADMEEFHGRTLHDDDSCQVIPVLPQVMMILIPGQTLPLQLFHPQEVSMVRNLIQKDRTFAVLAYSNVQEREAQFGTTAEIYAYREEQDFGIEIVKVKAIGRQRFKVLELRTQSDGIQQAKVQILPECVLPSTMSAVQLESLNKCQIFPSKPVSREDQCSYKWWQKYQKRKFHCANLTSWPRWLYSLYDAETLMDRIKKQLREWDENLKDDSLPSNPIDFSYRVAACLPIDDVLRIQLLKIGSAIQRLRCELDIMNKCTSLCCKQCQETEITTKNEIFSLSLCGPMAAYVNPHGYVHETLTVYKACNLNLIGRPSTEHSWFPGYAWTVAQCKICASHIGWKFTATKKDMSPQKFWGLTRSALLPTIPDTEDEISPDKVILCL
# Sequence (Q16531 whole entry partner): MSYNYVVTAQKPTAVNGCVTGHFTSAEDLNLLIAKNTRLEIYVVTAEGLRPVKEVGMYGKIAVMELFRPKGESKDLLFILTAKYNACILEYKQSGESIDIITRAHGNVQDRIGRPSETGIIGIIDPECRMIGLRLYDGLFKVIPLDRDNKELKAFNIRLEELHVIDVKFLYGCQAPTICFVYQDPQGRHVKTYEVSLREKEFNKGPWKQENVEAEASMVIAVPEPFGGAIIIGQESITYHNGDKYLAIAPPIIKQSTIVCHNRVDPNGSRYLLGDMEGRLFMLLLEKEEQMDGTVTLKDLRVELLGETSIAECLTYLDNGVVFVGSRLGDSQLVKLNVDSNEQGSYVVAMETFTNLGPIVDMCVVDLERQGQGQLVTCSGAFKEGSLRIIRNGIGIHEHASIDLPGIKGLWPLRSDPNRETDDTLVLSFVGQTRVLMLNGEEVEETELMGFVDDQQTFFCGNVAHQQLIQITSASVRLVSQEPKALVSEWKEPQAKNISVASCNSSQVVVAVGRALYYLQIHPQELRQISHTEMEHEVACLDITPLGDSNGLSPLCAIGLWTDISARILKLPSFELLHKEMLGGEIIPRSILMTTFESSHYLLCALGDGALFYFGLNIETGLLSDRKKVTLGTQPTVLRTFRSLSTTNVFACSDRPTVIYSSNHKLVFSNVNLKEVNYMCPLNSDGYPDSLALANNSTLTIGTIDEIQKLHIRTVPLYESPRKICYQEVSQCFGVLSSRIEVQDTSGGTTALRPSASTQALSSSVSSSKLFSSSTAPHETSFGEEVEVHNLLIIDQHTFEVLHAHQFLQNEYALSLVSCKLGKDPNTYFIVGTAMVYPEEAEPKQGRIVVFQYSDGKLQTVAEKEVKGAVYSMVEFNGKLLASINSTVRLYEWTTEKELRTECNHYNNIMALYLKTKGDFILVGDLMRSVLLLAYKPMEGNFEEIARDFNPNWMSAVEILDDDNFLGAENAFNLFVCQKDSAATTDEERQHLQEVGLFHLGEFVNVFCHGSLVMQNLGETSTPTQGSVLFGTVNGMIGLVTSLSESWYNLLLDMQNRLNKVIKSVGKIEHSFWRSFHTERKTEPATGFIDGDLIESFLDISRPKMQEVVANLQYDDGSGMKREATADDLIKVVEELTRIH
# assay-remarks: IKZF2 reporter degradation assay (HEK 293T IKZF2-mNeonGreen reporter cell line)
# Assay type: cell-based
# details: HEK 293T IKZF2 reporter cells, 24 hours incubation
measured-quantity: DC50 (µM)

Take a look at these entries with their results.
[[record]]
compound = "COc1ncc(C2CN(C3CCCCC3Oc3ccc4c(c3)CN(C3CCC(=O)NC3=O)C4=O)C2)cn1 (stereo not drawn)"
test_system = "IKZF2 (Helios) (Homo sapiens)"
measured_quantity = "DC50"
value_reported = 0.0286

[[record]]
compound = "O=C1CCC(N2Cc3cc(O[C@H]4CCCC[C@@H]4N4CC(n5cccn5)C4)ccc3C2=O)C(=O)N1 (stereo partly drawn)"
test_system = "IKZF2 (Helios) (Homo sapiens)"
measured_quantity = "DC50"
value_reported = 0.0965

[[record]]
compound = "COc1cc(C2CN(C3CCCCC3Oc3ccc4c(c3)CN(C3CCC(=O)NC3=O)C4=O)C2)ccn1 (stereo not drawn)"
test_system = "IKZF2 (Helios) (Homo sapiens)"
measured_quantity = "DC50"
value_reported = 0.0207

[[record]]
compound = "O=C1CCC(N2Cc3cc(OC4CCCCC4N4CC(c5ncc(F)cn5)C4)ccc3C2=O)C(=O)N1 (stereo not drawn)"
test_system = "IKZF2 (Helios) (Homo sapiens)"
measured_quantity = "DC50"
value_reported = 0.0299

[[record]]
compound = "O=C1CCC(N2Cc3cc(OC4CCCCC4N4CC(c5cnccn5)C4)ccc3C2=O)C(=O)N1 (stereo not drawn)"
test_system = "IKZF2 (Helios) (Homo sapiens)"
measured_quantity = "DC50"
value_reported = 0.12

[[record]]
compound = "O=C1CCC(N2Cc3cc(OC4CCCCC4N4CC(c5ccncc5)C4)ccc3C2=O)C(=O)N1 (stereo not drawn)"
test_system = "IKZF2 (Helios) (Homo sapiens)"
measured_quantity = "DC50"
value_reported = 0.0478

[[record]]
compound = "O=C1CCC(N2Cc3cc(OC4CCCCC4N4CC(c5ccccn5)C4)ccc3C2=O)C(=O)N1 (stereo not drawn)"
test_system = "IKZF2 (Helios) (Homo sapiens)"
measured_quantity = "DC50"
value_reported = 0.321

[[record]]
compound = "O=C1CCC(N2Cc3cc(OC4CCCCC4N4CC(c5c[nH]c6ccccc56)C4)ccc3C2=O)C(=O)N1 (stereo not drawn)"
test_system = "IKZF2 (Helios) (Homo sapiens)"
measured_quantity = "DC50"
value_reported = 0.026

[[record]]
compound = "O=C1CCC(N2Cc3cc(OC4CCCCC4N4CC(c5ncc(Cl)cn5)C4)ccc3C2=O)C(=O)N1 (stereo not drawn)"
test_system = "IKZF2 (Helios) (Homo sapiens)"
measured_quantity = "DC50"
value_reported = 0.525

[[record]]
compound = "O=C1CCC(N2Cc3cc(OC4CCCCC4N4CC(c5ccnc(C(F)(F)F)c5)C4)ccc3C2=O)C(=O)N1 (stereo not drawn)"
test_system = "IKZF2 (Helios) (Homo sapiens)"
measured_quantity = "DC50"
value_reported = 0.525


P = O=C1CCC(N2Cc3cc(OC4CCCCC4N4CC(c5cccnc5)C4)ccc3C2=O)C(=O)N1 (stereo not drawn)
Q = COc1ccc(C2CN(C3CCCCC3Oc3ccc4c(c3)CN(C3CCC(=O)NC3=O)C4=O)C2)cn1 (stereo not drawn)
q: Decide: P or Q , by lowest recorded DC50. Refer to your chosen entry by its label in the reply.
a: Q
